- tested system: Gamma-aminobutyric acid receptor subunit alpha-1 (Homo sapiens, UniProt P14867)
pKi: −log10 of the molar value.
assay readout: pKi

Q) Form field: reported pKi of c1cncc(OC[C@@H]2CCN2)c1
A) < 5.00

----------
- tested system: UniProt:P28335
- Sequence (P28335 whole entry): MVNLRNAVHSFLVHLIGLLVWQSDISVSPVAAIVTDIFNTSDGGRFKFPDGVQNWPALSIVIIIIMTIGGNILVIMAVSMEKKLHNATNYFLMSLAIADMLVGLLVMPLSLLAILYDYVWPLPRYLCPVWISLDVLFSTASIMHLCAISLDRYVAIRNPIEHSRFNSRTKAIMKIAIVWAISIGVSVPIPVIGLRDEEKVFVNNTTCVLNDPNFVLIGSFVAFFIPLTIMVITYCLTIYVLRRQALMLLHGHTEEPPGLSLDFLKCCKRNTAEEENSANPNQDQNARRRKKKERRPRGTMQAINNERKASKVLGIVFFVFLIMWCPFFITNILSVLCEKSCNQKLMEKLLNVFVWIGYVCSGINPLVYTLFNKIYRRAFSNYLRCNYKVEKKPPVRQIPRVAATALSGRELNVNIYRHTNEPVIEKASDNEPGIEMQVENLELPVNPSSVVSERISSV
pKi: −log10 of the molar value.
assay readout: pKi

Q) // query pKi value for entry c1cncc(OC[C@@H]2CCN2)c1
A) < 5.00

----------
- tested system: Beta-2 adrenergic receptor (Mus musculus)
- Sequence (P18762 whole entry): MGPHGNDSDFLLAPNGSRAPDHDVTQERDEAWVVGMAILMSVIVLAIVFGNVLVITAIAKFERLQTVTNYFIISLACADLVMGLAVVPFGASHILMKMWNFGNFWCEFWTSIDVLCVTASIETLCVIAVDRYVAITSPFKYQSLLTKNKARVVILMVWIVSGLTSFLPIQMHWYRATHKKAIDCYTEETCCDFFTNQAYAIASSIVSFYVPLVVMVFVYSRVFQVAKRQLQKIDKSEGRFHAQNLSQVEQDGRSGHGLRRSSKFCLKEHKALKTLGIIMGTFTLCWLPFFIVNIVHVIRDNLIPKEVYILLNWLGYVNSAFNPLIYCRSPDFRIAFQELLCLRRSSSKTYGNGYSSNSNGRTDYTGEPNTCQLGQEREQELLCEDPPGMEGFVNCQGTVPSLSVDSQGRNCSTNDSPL
assay readout: Ki

Q) Requested read-out: Ki. Entry: c1cncc(OC[C@@H]2CCN2)c1
A) > 10 µM

----------
assay readout: Ki

Q) Form field - read-out: Ki; system: Somatostatin (Rattus norvegicus, UniProt P60042); submitted item: c1cncc(OC[C@@H]2CCN2)c1
A) > 10 µM

----------
assay readout: Ki

Q) Look up Ki with Gamma-aminobutyric acid type B receptor subunit 1 (Homo sapiens) for this compound: c1cncc(OC[C@@H]2CCN2)c1
Sequence (Q9UBS5 whole entry): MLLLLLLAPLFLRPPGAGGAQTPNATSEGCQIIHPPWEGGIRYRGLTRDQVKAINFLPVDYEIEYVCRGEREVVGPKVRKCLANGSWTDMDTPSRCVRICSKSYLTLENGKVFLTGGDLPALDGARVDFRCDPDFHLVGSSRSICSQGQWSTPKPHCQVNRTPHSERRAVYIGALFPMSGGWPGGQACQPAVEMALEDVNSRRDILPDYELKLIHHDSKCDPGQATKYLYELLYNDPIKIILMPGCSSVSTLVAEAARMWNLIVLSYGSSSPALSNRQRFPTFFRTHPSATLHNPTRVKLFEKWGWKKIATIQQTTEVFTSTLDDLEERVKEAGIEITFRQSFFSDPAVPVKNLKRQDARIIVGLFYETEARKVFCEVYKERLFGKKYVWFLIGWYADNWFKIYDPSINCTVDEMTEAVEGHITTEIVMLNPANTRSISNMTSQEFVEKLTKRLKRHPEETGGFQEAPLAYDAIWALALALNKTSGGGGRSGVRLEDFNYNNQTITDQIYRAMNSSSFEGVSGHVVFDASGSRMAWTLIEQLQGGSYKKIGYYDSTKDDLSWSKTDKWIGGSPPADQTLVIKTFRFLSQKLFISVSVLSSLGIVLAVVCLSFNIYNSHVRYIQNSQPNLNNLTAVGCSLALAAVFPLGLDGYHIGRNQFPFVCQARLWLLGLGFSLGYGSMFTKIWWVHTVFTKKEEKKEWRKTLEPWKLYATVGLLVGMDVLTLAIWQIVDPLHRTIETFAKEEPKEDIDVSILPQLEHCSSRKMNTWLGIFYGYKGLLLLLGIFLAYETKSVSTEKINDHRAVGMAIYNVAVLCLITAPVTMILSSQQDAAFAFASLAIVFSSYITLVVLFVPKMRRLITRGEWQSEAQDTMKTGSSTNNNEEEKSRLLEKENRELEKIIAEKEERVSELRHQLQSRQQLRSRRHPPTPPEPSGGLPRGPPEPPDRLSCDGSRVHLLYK
A) > 10 µM

----------
- tested system: UniProt P13678
assay readout: Ki

Q) Look up Ki: c1cncc(OC[C@@H]2CCN2)c1
A) > 10 µM

----------
- tested system: Adrenergic alpha2 receptor (Mesocricetus auratus)
- Sequence (Q60533 whole entry): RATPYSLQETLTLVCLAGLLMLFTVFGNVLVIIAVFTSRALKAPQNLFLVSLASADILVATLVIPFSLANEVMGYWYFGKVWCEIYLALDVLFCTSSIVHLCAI
assay readout: Ki

Q) Bench note: what Ki did c1cncc(OC[C@@H]2CCN2)c1 show?
A) > 10 µM

----------
- tested system: Neuronal acetylcholine receptor subunit alpha-4 (Homo sapiens, UniProt P43681)
assay readout: pKi
Note on units: pKi is unitless, being -log10 of a concentration expressed in mol/L.

Q) Can you look up pKi on Neuronal acetylcholine receptor subunit alpha-4 (Homo sapiens, UniProt P43681) for c1cncc(OC[C@@H]2CCN2)c1 ?
A) 10.40

----------
- tested system: Putative choline uptake ABC transporter permease protein (Rhizobium meliloti (strain 1021))
assay readout: Ki

Q) I would be grateful if you could share the reported Ki for c1cncc(OC[C@@H]2CCN2)c1 .
A) > 10 µM

----------
- tested system: Voltage-dependent N-type calcium channel subunit alpha-1B (Rattus norvegicus, UniProt Q02294)
pKi: −log10 of the molar value.
assay readout: pKi

Q) Query: pKi; subject: c1cncc(OC[C@@H]2CCN2)c1
A) < 5.00

----------
- tested system: Sodium channel protein type 2 subunit alpha (Homo sapiens, UniProt Q99250)
- Sequence (Q99250 whole entry): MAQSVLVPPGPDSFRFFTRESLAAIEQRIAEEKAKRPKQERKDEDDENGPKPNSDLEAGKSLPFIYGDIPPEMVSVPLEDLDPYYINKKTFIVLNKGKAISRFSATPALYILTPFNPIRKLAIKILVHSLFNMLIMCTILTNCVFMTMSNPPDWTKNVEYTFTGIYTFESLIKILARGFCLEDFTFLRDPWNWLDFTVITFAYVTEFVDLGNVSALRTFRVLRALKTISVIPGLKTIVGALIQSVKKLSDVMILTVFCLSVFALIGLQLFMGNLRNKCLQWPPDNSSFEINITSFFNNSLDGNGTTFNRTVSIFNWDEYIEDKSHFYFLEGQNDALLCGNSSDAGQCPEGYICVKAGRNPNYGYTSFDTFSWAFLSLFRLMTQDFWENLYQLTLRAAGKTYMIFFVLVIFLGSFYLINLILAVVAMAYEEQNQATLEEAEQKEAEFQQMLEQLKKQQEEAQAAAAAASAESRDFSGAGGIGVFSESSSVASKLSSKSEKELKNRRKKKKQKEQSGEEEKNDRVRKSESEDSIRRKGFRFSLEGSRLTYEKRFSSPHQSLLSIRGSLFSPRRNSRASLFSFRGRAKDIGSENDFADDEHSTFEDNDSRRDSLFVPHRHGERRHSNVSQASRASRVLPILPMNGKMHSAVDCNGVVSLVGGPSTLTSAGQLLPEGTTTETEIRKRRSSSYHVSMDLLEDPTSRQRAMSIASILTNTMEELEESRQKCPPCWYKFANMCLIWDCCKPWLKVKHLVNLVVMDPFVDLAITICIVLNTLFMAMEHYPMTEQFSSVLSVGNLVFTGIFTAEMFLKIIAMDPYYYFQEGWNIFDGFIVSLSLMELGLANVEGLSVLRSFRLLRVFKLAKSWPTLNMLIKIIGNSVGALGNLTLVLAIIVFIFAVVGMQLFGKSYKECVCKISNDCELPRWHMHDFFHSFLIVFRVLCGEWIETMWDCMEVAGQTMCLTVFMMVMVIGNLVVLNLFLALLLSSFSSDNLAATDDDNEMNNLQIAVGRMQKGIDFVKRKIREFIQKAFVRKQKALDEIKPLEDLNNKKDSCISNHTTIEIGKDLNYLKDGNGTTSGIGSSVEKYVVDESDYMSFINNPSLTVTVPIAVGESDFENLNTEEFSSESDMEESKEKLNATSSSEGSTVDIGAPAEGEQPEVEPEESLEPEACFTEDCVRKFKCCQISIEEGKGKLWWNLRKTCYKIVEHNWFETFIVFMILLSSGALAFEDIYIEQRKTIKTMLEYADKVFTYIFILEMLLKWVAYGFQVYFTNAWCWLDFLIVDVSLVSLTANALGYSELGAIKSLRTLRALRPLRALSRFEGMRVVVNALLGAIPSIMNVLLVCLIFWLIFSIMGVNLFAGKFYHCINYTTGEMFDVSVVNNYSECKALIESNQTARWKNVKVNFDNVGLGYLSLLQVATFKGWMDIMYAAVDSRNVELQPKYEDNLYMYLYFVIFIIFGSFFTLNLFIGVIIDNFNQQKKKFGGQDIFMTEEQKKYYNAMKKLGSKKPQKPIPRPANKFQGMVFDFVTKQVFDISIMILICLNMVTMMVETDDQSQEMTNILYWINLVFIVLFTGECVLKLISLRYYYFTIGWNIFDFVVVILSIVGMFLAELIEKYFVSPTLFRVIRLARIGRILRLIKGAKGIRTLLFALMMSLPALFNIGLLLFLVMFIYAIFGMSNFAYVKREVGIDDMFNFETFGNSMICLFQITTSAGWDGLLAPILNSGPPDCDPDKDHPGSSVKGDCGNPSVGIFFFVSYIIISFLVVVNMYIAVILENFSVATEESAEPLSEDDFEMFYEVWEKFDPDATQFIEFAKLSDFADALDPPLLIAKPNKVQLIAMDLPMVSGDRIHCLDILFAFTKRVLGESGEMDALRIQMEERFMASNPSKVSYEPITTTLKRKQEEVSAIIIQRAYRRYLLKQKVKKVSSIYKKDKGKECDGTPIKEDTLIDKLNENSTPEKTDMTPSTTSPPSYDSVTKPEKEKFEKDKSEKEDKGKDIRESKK
pKi: −log10 of the molar value.
assay readout: pKi

Q) Please report the recorded pKi for c1cncc(OC[C@@H]2CCN2)c1 .
A) < 5.00

----------
- tested system: Mu-type opioid receptor (Rattus norvegicus, UniProt P33535)
assay readout: Ki

Q) Which Ki is listed for c1cncc(OC[C@@H]2CCN2)c1 ?
A) > 10 µM

----------
- tested system: 5-hydroxytryptamine receptor 1B (Canis lupus familiaris, UniProt P79250)
assay readout: Ki

Q) Report Ki for c1cncc(OC[C@@H]2CCN2)c1 please.
A) > 10 µM

----------
- tested system: UniProt:P05363
pKi: −log10 of the molar value.
assay readout: pKi

Q) What value of pKi has been recorded for this entry: c1cncc(OC[C@@H]2CCN2)c1
A) < 5.00

----------
- tested system: Solute carrier family 22 member 1 (Rattus norvegicus, UniProt Q63089)
- Sequence (Q63089 whole entry): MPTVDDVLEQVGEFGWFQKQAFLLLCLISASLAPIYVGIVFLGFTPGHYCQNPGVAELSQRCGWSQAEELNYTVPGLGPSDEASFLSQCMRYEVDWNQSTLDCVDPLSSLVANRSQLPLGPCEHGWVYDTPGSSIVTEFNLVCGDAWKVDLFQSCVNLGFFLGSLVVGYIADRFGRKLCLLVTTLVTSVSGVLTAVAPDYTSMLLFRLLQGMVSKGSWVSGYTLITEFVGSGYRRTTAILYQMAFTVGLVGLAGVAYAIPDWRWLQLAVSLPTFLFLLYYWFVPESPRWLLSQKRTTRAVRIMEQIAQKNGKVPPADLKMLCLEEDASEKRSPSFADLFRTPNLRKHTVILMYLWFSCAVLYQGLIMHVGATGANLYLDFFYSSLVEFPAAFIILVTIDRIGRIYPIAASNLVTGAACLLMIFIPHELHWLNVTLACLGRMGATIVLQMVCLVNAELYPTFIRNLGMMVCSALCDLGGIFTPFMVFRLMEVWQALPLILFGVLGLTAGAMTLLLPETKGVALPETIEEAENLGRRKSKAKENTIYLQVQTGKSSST
assay readout: Ki

Q) For the molecule c1cncc(OC[C@@H]2CCN2)c1 , what Ki is on record?
A) > 10 µM

----------
- tested system: Acetylcholine receptor subunit alpha (Rattus norvegicus, UniProt P25108)
pKi: −log10 of the molar value.
assay readout: pKi

Q) Would you mind telling me what pKi value was observed for CN1CCC[C@H]1c1cccnc1 [(R,S)-nicotine] ?
A) < 5.00

----------
- tested system: Kappa-type opioid receptor (Homo sapiens, UniProt P41145)
assay readout: Ki

Q) Lab note: need Ki for c1cncc(OC[C@@H]2CCN2)c1 on Kappa-type opioid receptor (Homo sapiens, UniProt P41145), anyone have it?
A) > 10 µM

----------
pKi: −log10 of the molar value.
assay readout: pKi

Q) Query for Gamma-aminobutyric acid type B receptor subunit 1 (UniProt Q9Z0U4): what pKi does the record show for c1cncc(OC[C@@H]2CCN2)c1 ?
A) < 5.00

----------
- tested system: Beta-nerve growth factor (Homo sapiens)
pKi: −log10 of the molar value.
assay readout: pKi

Q) Given the compound c1cncc(OC[C@@H]2CCN2)c1 , what is its reported pKi?
A) < 5.00

----------
pKi: −log10 of the molar value.
assay readout: pKi

Q) # value lookup — system Substance-P receptor (Homo sapiens, UniProt P25103), readout pKi, item c1cncc(OC[C@@H]2CCN2)c1
A) < 5.00

----------
- tested system: UniProt:P29371
- Sequence (P29371 whole entry): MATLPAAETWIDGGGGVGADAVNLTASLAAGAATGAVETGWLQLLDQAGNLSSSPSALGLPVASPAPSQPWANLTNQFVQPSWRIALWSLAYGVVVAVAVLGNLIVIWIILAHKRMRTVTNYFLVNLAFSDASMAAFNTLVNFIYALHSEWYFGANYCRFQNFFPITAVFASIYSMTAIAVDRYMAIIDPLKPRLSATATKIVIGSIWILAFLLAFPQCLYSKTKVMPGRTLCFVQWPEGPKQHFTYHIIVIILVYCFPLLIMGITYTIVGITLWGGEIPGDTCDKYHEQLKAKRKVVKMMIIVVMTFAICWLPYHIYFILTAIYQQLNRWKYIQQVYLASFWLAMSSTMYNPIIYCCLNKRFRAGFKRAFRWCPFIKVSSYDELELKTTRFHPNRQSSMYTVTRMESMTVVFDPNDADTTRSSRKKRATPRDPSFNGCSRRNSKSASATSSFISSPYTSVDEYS
pKi: −log10 of the molar value.
assay readout: pKi

Q) For the compound c1cncc(OC[C@@H]2CCN2)c1 , what pKi is on record?
A) < 5.00

----------
- tested system: 5-hydroxytryptamine receptor 1A/1B/1D/2C (Homo sapiens, UniProt P08908+P28221+P28222+P28335)
- Sequence (P08908 whole entry, one chain of several): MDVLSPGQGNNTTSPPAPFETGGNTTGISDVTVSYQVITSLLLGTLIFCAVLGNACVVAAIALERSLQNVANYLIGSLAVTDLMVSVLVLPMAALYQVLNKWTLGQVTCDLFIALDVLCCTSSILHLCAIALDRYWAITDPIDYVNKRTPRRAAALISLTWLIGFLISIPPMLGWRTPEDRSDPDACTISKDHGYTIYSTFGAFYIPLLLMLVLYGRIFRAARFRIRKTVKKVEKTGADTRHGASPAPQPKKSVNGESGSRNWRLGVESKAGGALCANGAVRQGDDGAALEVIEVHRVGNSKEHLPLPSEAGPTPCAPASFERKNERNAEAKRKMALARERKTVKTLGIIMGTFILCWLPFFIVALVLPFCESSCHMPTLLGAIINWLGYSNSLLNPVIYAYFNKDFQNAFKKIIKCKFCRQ
- Sequence (P28222 whole entry, one chain of several): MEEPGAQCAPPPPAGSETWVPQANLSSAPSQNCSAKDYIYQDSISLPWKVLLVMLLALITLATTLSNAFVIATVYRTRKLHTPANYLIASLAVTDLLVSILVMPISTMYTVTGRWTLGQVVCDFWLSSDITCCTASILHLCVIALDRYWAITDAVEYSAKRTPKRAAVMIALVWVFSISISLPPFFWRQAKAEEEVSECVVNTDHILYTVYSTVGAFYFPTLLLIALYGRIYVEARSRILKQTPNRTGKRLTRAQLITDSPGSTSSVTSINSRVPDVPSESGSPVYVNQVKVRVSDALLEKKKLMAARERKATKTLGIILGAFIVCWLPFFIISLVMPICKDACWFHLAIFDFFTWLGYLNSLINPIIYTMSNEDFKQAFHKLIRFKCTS
- Sequence (P28221 whole entry, one chain of several): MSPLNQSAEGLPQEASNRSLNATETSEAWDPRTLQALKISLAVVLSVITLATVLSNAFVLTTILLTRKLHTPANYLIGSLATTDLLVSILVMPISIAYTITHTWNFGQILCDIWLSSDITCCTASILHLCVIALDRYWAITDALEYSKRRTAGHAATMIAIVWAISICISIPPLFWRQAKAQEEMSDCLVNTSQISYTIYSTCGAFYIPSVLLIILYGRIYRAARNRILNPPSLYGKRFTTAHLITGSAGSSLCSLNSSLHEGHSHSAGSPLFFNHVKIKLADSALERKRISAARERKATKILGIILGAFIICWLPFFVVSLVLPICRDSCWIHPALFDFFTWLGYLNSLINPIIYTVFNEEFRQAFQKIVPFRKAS
pKi: −log10 of the molar value.
assay readout: pKi

Q) Look at this molecule and give its reported pKi. c1cncc(OC[C@@H]2CCN2)c1
A) < 5.00

----------
- tested system: Chloride channel protein 1 (Homo sapiens, UniProt P35523)
assay readout: Ki

Q) Which Ki value belongs to c1cncc(OC[C@@H]2CCN2)c1 ?
A) > 10 µM

----------
- tested system: GLRA1 protein (Homo sapiens, UniProt Q14C71)
- Sequence (Q14C71 whole entry): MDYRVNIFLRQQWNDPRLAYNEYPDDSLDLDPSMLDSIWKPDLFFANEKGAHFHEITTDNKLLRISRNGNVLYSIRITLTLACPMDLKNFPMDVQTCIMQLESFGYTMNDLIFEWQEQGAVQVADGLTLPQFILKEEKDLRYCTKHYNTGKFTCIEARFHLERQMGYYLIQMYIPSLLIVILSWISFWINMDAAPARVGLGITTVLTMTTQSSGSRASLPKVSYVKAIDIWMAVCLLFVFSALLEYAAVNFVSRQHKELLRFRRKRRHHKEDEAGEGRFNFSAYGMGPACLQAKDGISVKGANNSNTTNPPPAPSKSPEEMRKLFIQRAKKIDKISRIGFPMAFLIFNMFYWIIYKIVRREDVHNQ
pKi: −log10 of the molar value.
assay readout: pKi

Q) Need pKi, item c1cncc(OC[C@@H]2CCN2)c1
A) < 5.00
